IC50 for assorted compounds
Target: MAT2A homodimer (Homo sapiens)
Construct: inferred from the Ni sepharose purification and imidazole elution; made in house; host or cells: SF9 insect cells, recombinant baculovirus (Bac to Bac, pFASTBAC1)
Test: MAT2A biochemical assay (liberated phosphate, PiColorLock Gold)
Details: Table 5a; MAT2A biochemical assay; read-out: Enzyme Inhibition

smiles_data=COc1ccc(N2Cc3cnc(NCC(F)(F)F)nc3N(c3ccc(OC)cc3)C2=O)cc1 observed_value="< 100 nM"
smiles_data=COc1ccc(N2Cc3cnc(NCC(F)(F)F)nc3N(c3ccc4nccn4c3)C2=O)cc1 observed_value="1000 to 10000 nM"
smiles_data=CCOc1cc2c(cn1)CN(c1ccc3nn(C)cc3c1)C(=O)N2c1ccc(Cl)cc1 observed_value="100 to 1000 nM"

Consider the record given below.
Request: Can you look up the measured IC50 of "Cn1cc2cc(N3Cc4ccc(OCC(F)F)nc4N(c4ccc5[nH]ccc5c4)C3=O)ccc2n1" for me?
Response: < 100 nM

###

Target: MAT2A homodimer (Homo sapiens, UniProt P31153)
Construct: inferred from the Ni sepharose purification and imidazole elution; made in house; host or cells: SF9 insect cells, recombinant baculovirus (Bac to Bac, pFASTBAC1)
Sequence (P31153 whole entry): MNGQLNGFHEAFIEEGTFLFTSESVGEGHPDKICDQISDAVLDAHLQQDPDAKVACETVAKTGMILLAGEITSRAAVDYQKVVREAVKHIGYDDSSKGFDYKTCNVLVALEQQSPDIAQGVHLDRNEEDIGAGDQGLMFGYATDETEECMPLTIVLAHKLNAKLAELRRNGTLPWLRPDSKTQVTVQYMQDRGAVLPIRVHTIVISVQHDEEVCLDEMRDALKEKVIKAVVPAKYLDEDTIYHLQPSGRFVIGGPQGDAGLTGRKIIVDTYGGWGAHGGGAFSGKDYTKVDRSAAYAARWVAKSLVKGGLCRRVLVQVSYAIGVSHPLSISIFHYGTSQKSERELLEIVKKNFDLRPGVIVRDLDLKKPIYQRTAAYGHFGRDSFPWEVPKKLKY
Experiment: MAT2A biochemical assay (liberated phosphate, PiColorLock Gold)
Details: Table 5a; MAT2A biochemical assay; read-out: Enzyme Inhibition
IC50 for assorted molecules

molecule=CCOc1ccc2c(n1)N(c1ccc(OC)cc1)C(=O)N(c1ccc(NC)cc1)C2 target_of_assay="MAT2A homodimer (Homo sapiens, UniProt P31153)" metric=IC50 observed_value="1 to 10 µM"
molecule=[2H]C([2H])([2H])Oc1ccc(N2C(=O)N(c3ccc4nn(C(C)C)cc4c3)Cc3ccc(OCC(F)F)nc32)cc1 target_of_assay="MAT2A homodimer (Homo sapiens, UniProt P31153)" metric=IC50 observed_value="< 0.1 µM"

Request: Can you look up the measured IC50 of COC1CCC(N2C(=O)N(c3ccc4nn(C)cc4c3)Cc3ccc(OCC(F)F)nc32)CC1 (centres unmarked) for me?
Response: 1 to 10 µM

Request: "COc1ccc(N2Cc3cnc(NCC(F)(F)F)nc3N(c3ccc(C(F)(F)F)cc3)C2=O)cc1" ?
Response: 0.1 to 1 µM

###

Target: MAT2A homodimer (Homo sapiens, UniProt P31153)
Construct: inferred from the Ni sepharose purification and imidazole elution; made in house; host or cells: SF9 insect cells, recombinant baculovirus (Bac to Bac, pFASTBAC1)
Assay: MAT2A biochemical assay (liberated phosphate, PiColorLock Gold)
Settings: Table 5a; MAT2A biochemical assay; read-out: Enzyme Inhibition
IC50 for assorted compounds

smiles_data=[2H]C([2H])([2H])Oc1ccc(N2C(=O)N(c3ccc4nn(C5CC5)cc4c3)Cc3ccc(OCC(F)F)nc32)cc1 observed_value="< 100 nM"

Request: Provide value of IC50 for this record tested with MAT2A homodimer (Homo sapiens, UniProt P31153): "Cn1cc2cc(N3Cc4ccc(OCC(F)F)nc4N(c4ccc5ncnn5c4)C3=O)ccc2n1"
Response: 100 to 1000 nM

Request: "COc1ccc(N2Cc3cnc(NCC(F)(F)F)nc3N(c3ccc(O)nc3)C2=O)cc1" ?
Response: 1000 to 10000 nM

Request: "[2H]C([2H])([2H])Oc1ccc(N2C(=O)N(c3ccc4nn(C)c(C)c4c3)Cc3ccc(OCC(F)F)nc32)cc1" ?
Response: < 100 nM

Request: "COc1ccc(N2C(=O)N(c3ccc4nn(C)cc4c3)Cc3ccc(OCC(F)F)nc32)cc1" ?
Response: < 100 nM

Request: "[2H]C([2H])([2H])Oc1ccc(N2Cc3cnc(NCC(F)(F)F)nc3N(c3ccc(-c4nc[nH]n4)cc3)C2=O)cc1" ?
Response: < 100 nM

Request: "CCOc1ccc2c(n1)N(c1ccc(OC)cc1)C(=O)N(c1ccc3nn(C)cc3c1)C2" ?
Response: < 100 nM

###

Test system: HCT116 MTAP-/-
Assay: Inhibition of cellular proliferation (Cell Titer Glo), HCT116 MTAP-/-
Assay type: cell-based, human
Settings: Homo sapiens, HCT-116, 96 h, Table 5a, 4 days, read-out: 4 Day Relative Growth Inhibition (MTAP −/−)
pIC50: −log10 of the molar value.
METRIC: pIC50

Request: Can you look up the measured pIC50 of Cn1cc2cc(N3Cc4cnc(NCC(F)(F)F)nc4N(c4ccc(Br)cc4)C3=O)ccc2n1 [Example 425] for me?
Response: > 7.00

Request: COc1ccc(N2Cc3cnc(NCC(F)F)nc3N(c3ccc(-c4nc[nH]n4)cc3)C2=O)cc1 [Example 188] ?
Response: 6.00 to 7.00

Request: COc1ccc(N2C(=O)N(c3ccc4ncn(C)c4c3)Cc3ccc(OCC(F)F)nc32)cc1 [Example 139] ?
Response: > 7.00

Request: Cn1cc2cc(N3Cc4ccc(OCC(F)F)nc4N(c4ccc(OC(F)F)cc4)C3=O)ccc2n1 [Example 145] ?
Response: > 7.00

###

IC50 for assorted compounds
Tested on: HCT116 MTAP-/-
Assay: Inhibition of cellular proliferation (Cell Titer Glo), HCT116 MTAP-/-
Assay type: cell-based, human
Conditions: Homo sapiens, HCT-116, 96 h, Table 5a, 4 days, read-out: 4 Day Relative Growth Inhibition (MTAP −/−)

Request: Provide value of IC50 for this record tested with HCT116 MTAP-/-: CCOc1ccc2c(n1)N(c1ccc(OC(F)F)nc1)C(=O)N(c1ccc3nn(C)cc3c1)C2 [Example 275]
Response: 100 to 1000 nM

###

pIC50 for assorted compounds
Test system: HCT116 MTAP-/-
Assay: Inhibition of cellular proliferation (Cell Titer Glo), HCT116 MTAP-/-
Format: cell-based, human
Details: Homo sapiens, HCT-116, 96 h, Table 5a, 4 days, read-out: 4 Day Relative Growth Inhibition (MTAP −/−)
pIC50: −log10 of the molar value.

compound=Cn1cnc2ccc(N3Cc4ccc(OCC(F)(F)F)nc4N(c4ccc(OC(F)F)cc4)C3=O)cc21 target_of_assay="HCT116 MTAP-/-" metric=pIC50 observed_value="6.00 to 7.00"
compound=[2H]C([2H])([2H])Oc1ccc(N2C(=O)N(c3ccc4nc(C)n(C)c4c3)Cc3cnc(NCC(F)(F)F)nc32)cc1 target_of_assay="HCT116 MTAP-/-" metric=pIC50 observed_value="> 7.00"
compound=O=C1N(c2ccc3ncsc3c2)Cc2cnc(NCC(F)(F)F)nc2N1c1ccc(-c2nc[nH]n2)cc1 target_of_assay="HCT116 MTAP-/-" metric=pIC50 observed_value="6.00 to 7.00"
compound=[2H]C([2H])([2H])Oc1ccc(N2C(=O)N(c3ccc4nn(C)c(OC([2H])([2H])[2H])c4c3)Cc3ccc(OCC(F)F)nc32)cc1 target_of_assay="HCT116 MTAP-/-" metric=pIC50 observed_value="> 7.00"
compound=O=C1N(c2ccc3ncsc3c2)Cc2ccc(OCC(F)F)nc2N1c1ccc(Br)cc1 target_of_assay="HCT116 MTAP-/-" metric=pIC50 observed_value="> 7.00"

Request: Can you look up the measured pIC50 of "COc1ccc(N2C(=O)N(c3ccc4nn(C)cc4c3)Cc3c(OC)nc(NCC(F)(F)F)nc32)cc1" for me?
Response: 6.00 to 7.00

Request: "Cn1cc2cc(N3Cc4ccc(OCC(F)F)nc4N(c4ccc5nscc5c4)C3=O)ccc2n1" ?
Response: 6.00 to 7.00

Request: [2H]C([2H])([2H])Oc1ccc(N2C(=O)N(c3ccc4nn(C)cc4c3)Cc3ccc(OC(C)C(F)F)nc32)cc1 (stereo not drawn) ?
Response: > 7.00

Request: "[2H]C([2H])([2H])Oc1ccc(N2C(=O)N(c3ccc4nn(C)cc4c3)Cc3ccc(OCC(F)F)nc32)cc1" ?
Response: > 7.00

Request: "Cc1nc2ccc(N3Cc4cnc(NCC(F)(F)F)nc4N(c4ccc(-c5nc[nH]n5)cc4)C3=O)cc2s1" ?
Response: > 7.00

###

Molecular target: MAT2A homodimer (Homo sapiens)
Construct: inferred from the Ni sepharose purification and imidazole elution; made in house; host or cells: SF9 insect cells, recombinant baculovirus (Bac to Bac, pFASTBAC1)
Experiment: MAT2A biochemical assay (liberated phosphate, PiColorLock Gold)
Settings: Table 5a; MAT2A biochemical assay; read-out: Enzyme Inhibition
IC50 for assorted compounds

Request: Can you look up the measured IC50 of "Cn1cc2cc(N3Cc4cc(F)c(OCC(F)F)nc4N(c4ccc(OC(F)F)cc4)C3=O)ccc2n1" for me?
Response: < 100 nM

###

pIC50 for assorted compounds
System: HCT116 MTAP-/-
Test: Inhibition of cellular proliferation (Cell Titer Glo), HCT116 MTAP-/-
Format: cell-based, human
Conditions: Homo sapiens, HCT-116, 96 h, Table 5a, 4 days, read-out: 4 Day Relative Growth Inhibition (MTAP −/−)
pIC50: −log10 of the molar value.

Solved cases below.
smiles_data=Cn1cc2cc(N3Cc4ccc(NCC(F)(F)F)nc4N(c4ccc(-c5nc[nH]n5)cc4)C3=O)ccc2n1 target_of_assay="HCT116 MTAP-/-" metric=pIC50 observed_value="> 7.00"
smiles_data=O=C1N(c2ccc3ncccc3c2)Cc2cnc(NCC(F)(F)F)nc2N1c1ccc(-c2nc[nH]n2)cc1 target_of_assay="HCT116 MTAP-/-" metric=pIC50 observed_value="6.00 to 7.00"
smiles_data=COc1ccc(N2Cc3ccc(NCC(F)(F)F)nc3N(c3ccc(-c4ncn[nH]4)cc3)C2=O)cc1 target_of_assay="HCT116 MTAP-/-" metric=pIC50 observed_value="> 7.00"

Consider the record given below.
Request: Can you look up the measured pIC50 of "Cn1cc2cc(N3Cc4ccc(OCC(F)(F)F)nc4N(c4ccc(OC(F)F)cc4)C3=O)ccc2n1" for me?
Response: 6.00 to 7.00
